target: his-labeled human IL-13 (immunogen A) (human) (UniProt P35225); assay: cell-based or functional assay
assayReadout: TARC (pg/mL), A549 cells + IL-13 5 ng/mL + TNFα; antibody at 0.021 nM
Returns: string containing the numeric result and its unit.

Worked cases, TARC (pg/mL), A549 cells + IL-13 5 ng/mL + TNFα; antibody at 0.021 nM given:
binder	observedValue
35E2C3 (lead antibody, mouse hybridoma) (antibody, V domains shown, Mouse monoclonal antibody purified from hybridoma supernatant on Protein G) VH: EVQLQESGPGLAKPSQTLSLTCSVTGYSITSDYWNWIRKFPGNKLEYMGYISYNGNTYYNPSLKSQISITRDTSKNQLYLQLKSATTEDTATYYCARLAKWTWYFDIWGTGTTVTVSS VL: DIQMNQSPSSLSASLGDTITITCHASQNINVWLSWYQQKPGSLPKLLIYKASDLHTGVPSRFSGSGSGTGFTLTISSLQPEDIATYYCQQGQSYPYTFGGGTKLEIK	1620 pg/mL
70F10A10 (lead antibody, mouse hybridoma) (antibody, V domains shown) VH: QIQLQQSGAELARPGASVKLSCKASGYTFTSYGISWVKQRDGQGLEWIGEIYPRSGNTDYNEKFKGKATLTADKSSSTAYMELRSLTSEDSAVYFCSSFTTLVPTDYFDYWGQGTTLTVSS VL: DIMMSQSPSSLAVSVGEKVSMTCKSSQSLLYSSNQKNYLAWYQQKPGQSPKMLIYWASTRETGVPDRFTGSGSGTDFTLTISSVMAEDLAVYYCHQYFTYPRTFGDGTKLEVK	1600 pg/mL

// next item, TARC (pg/mL), A549 cells + IL-13 5 ng/mL + TNFα; antibody at 0.021 nM requested
Name the recorded TARC (pg/mL), A549 cells + IL-13 5 ng/mL + TNFα; antibody at 0.021 nM for 29D9H8 (lead antibody, mouse hybridoma) (antibody, V domains shown, Mouse monoclonal antibody purified from hybridoma supernatant on Protein G) VH: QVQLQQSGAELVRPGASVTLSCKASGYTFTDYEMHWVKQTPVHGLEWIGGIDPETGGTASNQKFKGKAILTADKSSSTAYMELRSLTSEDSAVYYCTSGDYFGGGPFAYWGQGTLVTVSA VL: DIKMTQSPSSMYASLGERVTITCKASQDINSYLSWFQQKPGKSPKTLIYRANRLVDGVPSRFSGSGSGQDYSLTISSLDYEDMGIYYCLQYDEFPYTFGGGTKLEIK .
1600 pg/mL
